APPLIED_CONDITIONS: in ethanol, 338.1 K
MEASUREMENT_NAME: solubility (mole fraction)
The reply should be a number, written without any unit.

Query: I have this compound here, `C[N+](C)(C)CCOC(=O)CCCC(=O)O.[Cl-]` , and I need its recorded solubility (mole fraction).
Response: 0.043

----------
APPLIED_CONDITIONS: in ethanol, 269.8 K
MEASUREMENT_NAME: solubility (mole fraction)
The reply should be a number, written without any unit.

Query: I have this compound here, `C[N+](C)(C)CCO.[Cl-]` , and I need its recorded solubility (mole fraction).
Response: 0.017

----------
APPLIED_CONDITIONS: in n-butanol, 335.1 K
MEASUREMENT_NAME: solubility (mole fraction)
The reply should be a number, written without any unit.

Query: I have this molecule here, `C[N+](C)(C)CCOC(=O)CCCC(=O)O.[Cl-]` , and I need its recorded solubility (mole fraction).
Response: 0.0035

Hello, the source for this data is BigSolDB 2.1, in case you need it.
